// reported melting point per item

// worked examples, melting point included
Cc1cc(C)c2c(c1)[C@H]1CN(C)CC[C@@H]1CC2=O (relative stereo) : > 250 °C
CCOC(=O)Cc1sc(S)nc1-c1ccc(Cl)cc1 : 176 to 178 °C
CC(C)Nc1cccnc1N1CCN(C(=O)c2ccc(C(=O)NC(CO)CO)cn2)CC1 : 90 to 93 °C
CN1CCC(c2nn(-c3ccc(N)cc3)c3ccccc23)CC1 : 116 to 118 °C

Now let's try a different one.
// melting point lookup, key: Cn1nc(S(C)=O)c(=O)c2ccccc21 (stereo not given)
187 to 189 °C

* * *

readout_kind: melting point

// melting point lookup, key: CCCc1cc(C(=O)O)cc(CCC)c1OCCCCCCc1cccc(OC)c1OC
61 to 65 °C

// melting point lookup, key: Cc1cc(C)c(Cc2cnc(NCCCCc3ncc(Br)cc3C)[nH]c2=O)cn1
110 to 112 °C

// melting point lookup, key: CCOC(=O)c1c(CCCN(CC)CC)nc2cc(OC)c(OC)cc2c1-c1ccc(OC)c(OC)c1
96 to 98 °C

// melting point lookup, key: Cc1cc(C)cc(OCC(=O)c2ccc(C(C)C)cc2)c1
68 to 69 °C

// melting point lookup, key: Fc1ccccc1-c1nc(N2CCNCC2)nc2ccccc12
132 to 133 °C

// melting point lookup, key: CCCCOc1nc2cccc(C(=O)OC)c2n1Cc1ccccc1-c1ccccc1-c1nnn[nH]1
146 to 148 °C

// melting point lookup, key: COC(=O)c1ccc(C#CCc2cccc3c2OCCC3(C)C)cc1O
92 to 93 °C

// melting point lookup, key: CCCCS(=O)(=O)NC(=O)/C=C/c1c(C)nn(C)c1-n1ccc2cc(Cl)cnc21
245 to 248 °C

// melting point lookup, key: Clc1ccc(C=Cc2ccccc2)cc1
129 to 130 °C

// melting point lookup, key: O=C(NC1C2CC3CC(C2)CC1C3)C1CCCCN1Cc1ccccn1 (centres undefined)
126 to 127 °C

// melting point lookup, key: CCCOc1cc2c(=O)c3ccccc3sc2cc1Cl
101 to 102 °C

// melting point lookup, key: CC(C)Sc1ccc(N)c(C#N)c1
67 to 68 °C

// melting point lookup, key: COc1cc2c(cc1OC)CN(CCc1ccc(NC(=O)c3cccc4c(=O)c5cccc(OC)c5[nH]c34)cc1)CC2
215 to 225 °C

// melting point lookup, key: O=C(NCCc1ccn(-c2cc3nc(C(=O)O)c(=O)[nH]c3cc2F)c1)Nc1ccc(C(=O)O)cc1
> 300 °C

// melting point lookup, key: CSc1[nH]c(-c2cnn(-c3c(Cl)cc(C(F)(F)F)cc3Cl)n2)nc1[N+](=O)[O-]
153 to 155 °C

// melting point lookup, key: NC(=S)c1cc(Cl)c(Cl)c(Cl)n1
168 to 169 °C

// melting point lookup, key: COc1cc(OC)c(C(C)=O)cc1OC
91 to 93 °C

// melting point lookup, key: CCCCNc1cc(-c2c(-c3cccc(C)c3)nc3cccnn23)ccn1
128 to 129 °C
